test system: transactivating tegument protein VP16 (Human herpesvirus 1), Gal4-VP16 luciferase reporter; assay: VP16 transactivation inhibitors, counter-screen for SRC3 inhibitor project, cell-based, luminescence, high throughput (AID 588794); settings: mammalian cells, VP16-driven luciferase reporter luminescence; at 3.6 µM; stronger effect = higher value
# label = condition met if inhibition >= 40% else condition not met

Field: example entries. Status: answers known.
compound	studyTarget	assignedLabel
CCN(CC(=O)Nc1ccc(OC)cc1)C(=O)CSCC(=O)Nc1cc(C)on1	transactivating tegument protein VP16 (Human herpesvirus 1), Gal4-VP16 luciferase reporter	condition not met
COc1cc(N=Cc2c(O)[nH]c3ccccc23)cc(OC)c1OC	transactivating tegument protein VP16 (Human herpesvirus 1), Gal4-VP16 luciferase reporter	condition not met
Cc1cc(C(=O)COC(=O)C2CC2)c(C)n1-c1ccc(F)cc1	transactivating tegument protein VP16 (Human herpesvirus 1), Gal4-VP16 luciferase reporter	condition not met
Oc1c(CN2CCCCC2)cc(COCc2ccccc2)c2cccnc12	transactivating tegument protein VP16 (Human herpesvirus 1), Gal4-VP16 luciferase reporter	condition met
CCN(c1ccccc1)S(=O)(=O)c1ccc(C(=O)Nc2nnc(-c3ccco3)o2)cc1	transactivating tegument protein VP16 (Human herpesvirus 1), Gal4-VP16 luciferase reporter	condition not met
O=c1[nH]cnc2c1nnn2C1OC(CO)C(O)C1O (centres undefined)	transactivating tegument protein VP16 (Human herpesvirus 1), Gal4-VP16 luciferase reporter	condition not met
COc1ccc(C(CNC(=O)C(C)(C)Oc2ccc(Cl)cc2)N2CCCCC2)cc1 (centres undefined)	transactivating tegument protein VP16 (Human herpesvirus 1), Gal4-VP16 luciferase reporter	condition not met
CN1CC(=O)N2C(c3cccc([N+](=O)[O-])c3)c3[nH]c4ccccc4c3C[C@H]2C1=O (some centres undefined)	transactivating tegument protein VP16 (Human herpesvirus 1), Gal4-VP16 luciferase reporter	condition not met

[in] Can O=C(O)c1ccc(N/N=C/c2ccc3nccnc3c2)cc1 be said to have inhibition at or above 40%?
[out] condition not met

[in] Would you mind doing COc1ccc2c(c1)CCc1cnc(N)nc1-2 as well?
[out] condition not met

[in] Would you mind doing CCCCCCCCCCn1c2c(c(=N)c3c1CCC3)CCC2 as well?
[out] condition met

[in] Would you mind doing CN(Cc1cccc(F)c1)C(=O)C1CC(=O)N(Cc2ccco2)C1 (centres undefined) as well?
[out] condition not met

[in] Would you mind doing CCCCCN1C=CC(=C2C(=O)c3ccccc3C2=O)C=C1 as well?
[out] condition not met

[in] Would you mind doing C#CCN(C[C@@H]1[C@@H](OC(=O)NCCCCCC)[C@@H](OC(=O)NCCCCCC)Cn2c(=O)ccc(=O)n21)S(=O)(=O)c1ccc(C)cc1 as well?
[out] condition not met

[in] Would you mind doing COc1ccc(OC)c(NC(=O)c2cccc(N3C(=O)C4C5C=CC(C6CC56)C4C3=O)c2)c1 (centres undefined) as well?
[out] condition not met

----------
molecular target: Steroidogenic factor 1 (Homo sapiens); test: SF1 (NR5A1) inverse agonists, counter-screen for LRH-1 inverse agonist project, cell-based, luminescence, high throughput (AID 651614); conditions: cell-based SF1 luciferase reporter, at 3.6 µM, stronger effect = higher value;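 also: cells cotransfected with StAR promoter reporter and SF1 expression vector; 0% = vehicle on cells with receptor and 100% = vehicle on cells lacking receptor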
# label = true (1) if inhibition >= 60% else false (0)

Field: example entries. Status: answers known.
molecule	assignedLabel
NS(=O)(=O)c1ccc(N=Nc2c(O)[nH]c3ccc(Br)cc23)cc1	false (0)
N#Cc1ccc(NC(=O)COc2ccc(-n3cnnn3)cc2)cc1	false (0)
COc1cc(NCCCCCCN)c2ncccc2c1OC	false (0)
O=C(NCc1cccc(C(F)(F)F)c1)c1cc(-c2ccccc2)nn1CC1CC(c2cccnc2)=NO1 (stereo unspecified)	false (0)

[in] Can CC(=O)Nc1ccc(Nc2c3ccccc3nc3ccccc23)cc1 be said to have inhibition at or above 60%?
[out] true (1)

[in] Would you mind doing Cc1ccc(-c2csc(NC(=O)C3CCN(S(=O)(=O)c4cccs4)CC3)n2)cc1 as well?
[out] false (0)

[in] Would you mind doing Cc1cccc(/C=C(\c2nc3ccccc3[nH]2)S(=O)(=O)c2ccccc2)c1 as well?
[out] false (0)

[in] Would you mind doing O=C(NCc1cccnc1)/C(=C\c1ccc(-c2cccc(Cl)c2)o1)S(=O)(=O)c1ccccc1 as well?
[out] true (1)

[in] Would you mind doing CC(=O)Nc1ccc(-c2ccnc3c2CC(C(=O)NCc2ccco2)O3)cc1 (stereo unspecified) as well?
[out] false (0)

[in] Would you mind doing CNC1=C(N(C(C)=O)c2ccc(Br)cc2)C(=O)c2ccccc2C1=O as well?
[out] true (1)

[in] Would you mind doing CN1CCN(c2ccc(-c3ccc4ccccc4n3)cc2)CC1 as well?
[out] true (1)

[in] Would you mind doing CCOC(=O)C(C(C)=O)c1c(Br)c(O)c(O)c2c(C(=O)c3ccc(C)cc3)coc12 (stereo unspecified) as well?
[out] true (1)

[in] Would you mind doing N#Cc1ccccc1NC(=O)c1ccccc1OCC(=O)Nc1ccc2c(c1)oc1ccccc12 as well?
[out] false (0)

[in] Would you mind doing O=C(COC(=O)c1ccc[n+]([O-])c1)Nc1ccc([N+](=O)[O-])cc1Cl as well?
[out] false (0)

[in] Would you mind doing On1ccccc1=S as well?
[out] true (1)

[in] Would you mind doing CC(NC(=O)CCl)c1ccc(Cl)c(Cl)c1 (stereo unspecified) as well?
[out] true (1)

[in] Would you mind doing Cc1cc(C(=O)NC2CCCc3c2cnn3-c2ccc(C)c(C)c2)n(C)n1 (stereo unspecified) as well?
[out] false (0)

[in] Would you mind doing COc1cc(-c2noc(C)c2/C=C/c2ccc(N)cc2)cc(OC)c1OC as well?
[out] false (0)

Numbers sourced from PubChem BioAssay.
